Could you please report measured Tm for the items listed next?
- Test Name: melting temperature; melt of duplexes
- Cond: sodium 0.0675 M; strand 1 µM
Give bare numbers, in °C.

Solved entries:
Substance	Tm, °C
CGACGTGCGGAATGTGCTG+CAGCACATCTGGCACGTCG ((((((((...((((((((+))))))))...))))))))	52.3
CGACGTGCCTAATGTGCTG+CAGCACATGGAGCACGTCG ((((((((...((((((((+))))))))...))))))))	51.9

For each of the substances below, state Tm.
1. CGACGTGCCCGATGTGCTG+CAGCACATCCAGCACGTCG ((((((((..(((((((((+)))))))))..))))))))
2. CGACGTGCTTGATGTGCTG+CAGCACATCATGCACGTCG ((((((((.((((((((((+)))))))))).))))))))
3. CGACGTGCCCTATGTGCTG+CAGCACATAACGCACGTCG ((((((((..(((((((((+)))))))))..))))))))
4. CGACGTGCCTCATGTGCTG+CAGCACATCCCGCACGTCG ((((((((...((((((((+))))))))...))))))))
5. CGACGTGCCGGATGTGCTG+CAGCACATTGAGCACGTCG ((((((((...((((((((+))))))))...))))))))

1: 52.7; 2: 59.5; 3: 48.7; 4: 46.5; 5: 50.8

For each of the substances below, state Tm.
1. CGACGTGCCCTATGTGCTG+CAGCACATCGTGCACGTCG ((((((((.(.((((((((+)))))))).).))))))))
2. CGACGTGCTGTATGTGCTG+CAGCACATGAAGCACGTCG (((((((((..((((((((+))))))))..)))))))))

1: 44.2; 2: 54.9
